molecular target: Adenosine 5'-monophosphoramidase HINT1 (Homo sapiens, UniProt P49773); test: Binding affinity to His-tagged human full length HINT1 expressed in Rosetta2 pLysS cells by isothermal titration calorimetric assay
Sequence (P49773 whole entry): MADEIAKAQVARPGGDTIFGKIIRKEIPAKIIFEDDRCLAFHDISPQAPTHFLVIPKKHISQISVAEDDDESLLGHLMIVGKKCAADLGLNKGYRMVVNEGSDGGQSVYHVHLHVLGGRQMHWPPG
pKd: −log10 of the molar value.
MEASURED_METRIC: pKd

MOLECULE: CCN(CC)CC.Nc1nc2c(ncn2[C@@H]2O[C@H](CNS(=O)(=O)NC(=O)CCc3c[nH]c4ccccc34)[C@@H](O)[C@H]2O)c(=O)[nH]1
pKd: 6.04

a = CCN(CC)CC.Nc1nc2c(ncn2[C@@H]2O[C@H](COS(=O)(=O)NC(=O)CCc3c[nH]c4ccccc34)[C@@H](O)[C@H]2O)c(=O)[nH]1
b = CCCC(=O)NS(=O)(=O)OC[C@H]1O[C@@H](n2cnc3c(=O)[nH]c(N)nc32)[C@H](O)[C@@H]1O.CCN(CC)CC
c = Nc1ncnc2c1ncn2[C@@H]1O[C@H](CNS(=O)(=O)NC(=O)CCCC[C@@H]2SC[C@@H]3NC(=O)N[C@@H]32)[C@@H](O)[C@H]1O
Put the molecules in ascending order of pKd. Reply with the item labels sorted in the order that was asked for.
b, a, c

----------
target: Adenosine 5'-monophosphoramidase HINT1 (Homo sapiens); test: Binding affinity to recombinant human HINT1 by isothermal titration calorimetric assay
MEASURED_METRIC: Kd (µM)
Value expressed in µM; do not type the unit.

Name the recorded Kd for Nc1nc2c(ncn2[C@@H]2O[C@H](COC(=O)NCCc3c[nH]c4ccccc34)[C@@H](O)[C@H]2O)c(=O)[nH]1 .
3.65

----------
biological target: Adenosine 5'-monophosphoramidase HINT1 (Homo sapiens); test: Inhibition of His-tagged human full length HINT1 expressed in Rosetta2 pLysS cells using TrpAMP as substrate measured for 2 to 30 mins by fluorescence assay
MEASURED_METRIC: IC50 (µM)

P = Nc1nc2c(ncn2[C@@H]2O[C@H](COC(=O)NCCc3c[nH]c4ccccc34)[C@@H](O)[C@H]2O)c(=O)[nH]1
Q = Nc1ncnc2c1ncn2[C@@H]1O[C@H](CNS(=O)(=O)NC(=O)CCCC[C@@H]2SC[C@@H]3NC(=O)N[C@@H]32)[C@@H](O)[C@H]1O
Among P and Q , whose measured IC50 is the smaller figure? Let me know the label of the one you choose.
Q
(Q: 1 µM, P: 25.5 µM)
